# maps each entry to its IC50
target: rh integrin α4β7 (R&D Systems #5397-A30) (human) (UniProt P13612); test: competition ELISA vs MAdCAM-1
Bridge positions count the residues as written; N and C are the ends. Square brackets hold non-standard residues; d marks the D form. 1Nal = N[C@@H](Cc1cccc2ccccc12)C(=O)O; 2Nal = N[C@@H](Cc1ccc2ccccc2c1)C(=O)O; NMeR = CN[C@@H](CCCNC(=N)N)C(=O)O; NMeK = CN[C@@H](CCCCN)C(=O)O; Pen = CC(C)(S)[C@H](N)C(=O)O; dNMeK = CN[C@H](CCCCN)C(=O)O

Guide cases for IC50, answers given:
[
  {
    "Binder": "Ac-[Pen][NMeR]SDTL[Pen][2Nal][dE][dK]-NH2 (disulfide 1-7; also: dimer via DIG) [SEQ ID NO: 33]",
    "IC50": "< 10 nM"
  },
  {
    "Binder": "Ac-[Pen][NMeR]SDTL[Pen][2Nal]E[NMeK]-NH2 (disulfide 1-7 (inferred); also: homodimer via DIG) [SEQ ID NO: 138]",
    "IC50": "> 10 nM"
  },
  {
    "Binder": "Ac-[Pen][NMeR]SDTL[Pen][2Nal]E[dK]-NH2 (disulfide 1-7; also: dimer via DIG, attachment site not given here) [Peptide 212]",
    "IC50": "2 nM"
  },
  {
    "Binder": "Ac-[Pen][NMeR]SDTL[Pen][1Nal][dE][dK]-NH2 (disulfide 1-7; also: dimer via DIG) [SEQ ID NO: 32]",
    "IC50": "< 10 nM"
  }
]

Give its IC50 value. Item: Ac-[Pen][NMeR]SDTL[Pen][2Nal]E[dNMeK]-NH2 (disulfide 1-7; also: dimer via DIG) [SEQ ID NO: 41] < 10 nM

Give its IC50 value. Item: Ac-[Pen][NMeR]SDTL[Pen][2Nal]E[dK]-NH2 (disulfide 1-7; SMILES CC(=O)N[C@@H]1C(=O)N(C)[C@@H](CCCNC(=N)N)C(=O)N[C@@H](CO)C(=O)N[C@@H](CC(=O)O)C(=O)N[C@@H]([C@@H](C)O)C(=O)N[C@@H](CC(C)C)C(=O)N[C@H](C(=O)N[C@@H](Cc2ccc3ccccc3c2)C(=O)N[C@@H](CCC(=O)O)C(=O)N[C@H](CCCCN)C(N)=O)C(C)(C)SSC1(C)C) [Peptide 210] 11 nM

Give its IC50 value. Item: Ac-[Pen][NMeR]SDTL[Pen][1Nal][dE][dNMeK]-NH2 (disulfide 1-7 (inferred)) [SEQ ID NO: 12] > 25 nM
